These entries and their values trace back to patent EP4755888A1.

Assignment: determine reported pIC50 for the given compounds.
target_under_test: PD-1/PD-L1 (Homo sapiens)
Sequence (Q9NZQ7 19-238 limits assumed): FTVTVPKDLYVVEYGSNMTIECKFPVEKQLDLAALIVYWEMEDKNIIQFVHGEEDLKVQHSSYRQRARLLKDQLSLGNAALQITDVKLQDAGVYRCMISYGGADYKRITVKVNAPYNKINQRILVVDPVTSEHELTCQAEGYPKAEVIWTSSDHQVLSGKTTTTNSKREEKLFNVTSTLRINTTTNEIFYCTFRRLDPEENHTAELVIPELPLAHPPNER
assay_protocol: TR-FRET PD-1/PD-L1 binding inhibition at the molecular level (free proteins)
condition_info: Tag1-PD-L1 and Tag2-PD-1 proteins, twelve concentrations from 200 nM, 2 hours at room temperature, read-out: FRET assay (IC50)
Protocol: In order to evaluate the inhibitory activity of the compounds synthesized according to the above Preparation Examples against PD-1/PD-L1 molecules in a free protein state,a TR-FRET (Time-Resolved Fluorescence Energy Transfer) experimetn was performed as described below. Specifically, the compounds were prepared in a 96-well plate by serial dilution starting from 200 nM with 1/2 dilutions to obtain a total of twelve concentrations, and 2 µL of each compound solution was added to a 384-well plate. […]
pIC50: −log10 of the molar value.

INSERT INTO results (compound, parameter_measured, endpoint_result) VALUES
  ('O=C(O)CNC1CCCn2nc(C(=O)Nc3cccc(-c4cccc(NC(=O)c5cc6n(n5)CCCC6NCC(=O)O)c4Cl)c3Cl)cc21 (stereo not drawn)', 'pIC50', '> 8.00'),
  ('COc1cc(/C(F)=C/c2cccc(-c3cccc(NC(=O)c4cc5n(n4)CCC[C@@H]5N4CC[C@@H](O)C4)c3Cl)c2Cl)ncc1CN1CC[C@@H](O)C1', 'pIC50', '7.00 to 8.00');

Next compound, please.
Kindly state the measured pIC50 obtained for CC(=O)NCCNC1CCCn2nc(C(=O)Nc3cccc(-c4cccc(Nc5nccc6cc(CN7CC[C@@H](O)C7)cnc56)c4C)c3C)cc21 (stereo partly drawn) with PD-1/PD-L1 (Homo sapiens).
> 8.00
